- assay_target: Runt-related transcription factor 1 (Homo sapiens) + Core-binding factor subunit beta (Homo sapiens) (UniProt Q01196+Q13951)
- Sequence (Q01196 whole entry, looked up): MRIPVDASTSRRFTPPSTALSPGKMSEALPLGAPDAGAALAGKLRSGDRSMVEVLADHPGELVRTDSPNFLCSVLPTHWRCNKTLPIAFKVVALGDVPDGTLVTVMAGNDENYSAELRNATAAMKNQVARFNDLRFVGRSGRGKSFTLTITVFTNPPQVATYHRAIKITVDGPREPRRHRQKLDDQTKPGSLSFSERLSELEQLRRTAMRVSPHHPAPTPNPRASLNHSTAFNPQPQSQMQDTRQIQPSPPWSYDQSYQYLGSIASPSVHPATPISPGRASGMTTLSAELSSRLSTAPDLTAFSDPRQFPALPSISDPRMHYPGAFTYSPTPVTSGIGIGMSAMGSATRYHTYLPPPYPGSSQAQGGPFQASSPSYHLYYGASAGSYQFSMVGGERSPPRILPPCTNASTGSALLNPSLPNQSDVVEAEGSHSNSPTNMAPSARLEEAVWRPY
- Sequence (Q13951 whole entry, looked up): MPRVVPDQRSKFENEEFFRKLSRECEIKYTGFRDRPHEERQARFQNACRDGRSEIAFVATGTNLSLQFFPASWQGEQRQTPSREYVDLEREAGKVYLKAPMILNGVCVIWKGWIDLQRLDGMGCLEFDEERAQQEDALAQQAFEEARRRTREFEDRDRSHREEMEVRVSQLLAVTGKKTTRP
- experimental_protocol: qHTS Assay for Compounds Blocking the Interaction Between CBF-beta and RUNX1 for the Treatment of Acute Myeloid Leukemia: Hit Validation; further: nearly all actives have a fitted effect of over 60% in size
- experimental_context: AlphaScreen CBFb-His/RUNX1-biotin binding; series mostly up to 59.8 µM
- Excerpt: NIH Chemical Genomics Center [NCGC] NIH Molecular Libraries Probe Production centers Network [MLPCN] Assay Submitter (PI): Paul Liu Core Binding Factor (CBF) abnormalities are associated with 20-25% of all acute myeloid leukemias (AML), of which 5-10% are further sub classified as acute myelomonocytic leukemia with eosinophilia, also known as M4Eo in the FAB classification scheme. […] (6) Detection, Excitation=365 nm Emission=440 nm, Envision reader in AlphaScreenTM mode […]
About 100 (6.7%) of roughly 1,500 compounds were called active. About 7% were inconclusive and are not listed. The call rests on the fitted dose curve; in most records, active means well fitted inhibition curve with a large enough effect; inconclusive means small, poorly fitted or top-dose-only effect, or effect the other way; inactive means flat fitted curve, though single readings scatter. What follows is part of a selection rich in actives, with near analogues and random picks from the rest.
Assign a class; possible classes are yes (active), no (inactive)

[in] Returns: the outcome recorded for "O=[N+]([O-])c1cc2c(cc1/C=N/n1c(-c3ccccn3)n[nH]c1=S)OCO2" in this assay.
[out] yes

[in] Returns: the outcome recorded for "Cc1cccc(-c2n[nH]c(=S)n2/N=C/c2ccco2)c1" in this assay.
[out] no

[in] Returns: the outcome recorded for "O=C(O)c1cc2ccccc2cc1Nc1ccccc1" in this assay.
[out] no

[in] Returns: the outcome recorded for "Fc1ccccc1/C=N/n1c(-c2cccnc2)n[nH]c1=S" in this assay.
[out] no

[in] Returns: the outcome recorded for "CCOC(=O)N1CCC(NS(=O)(=O)c2ccc(C)c(Cl)c2)CC1" in this assay.
[out] no

[in] Returns: the outcome recorded for "Nc1ccc(N)c(C(=O)O)c1" in this assay.
[out] yes
